Reported IC50 values follow for various compounds
- system_tested: HER2 S310F (Homo sapiens, UniProt P04626, S310F)
- Construct: expressed in transfected cells; host or cells: BaF3 (murine pro-B)
- Sequence (P04626 23-1255 S310F): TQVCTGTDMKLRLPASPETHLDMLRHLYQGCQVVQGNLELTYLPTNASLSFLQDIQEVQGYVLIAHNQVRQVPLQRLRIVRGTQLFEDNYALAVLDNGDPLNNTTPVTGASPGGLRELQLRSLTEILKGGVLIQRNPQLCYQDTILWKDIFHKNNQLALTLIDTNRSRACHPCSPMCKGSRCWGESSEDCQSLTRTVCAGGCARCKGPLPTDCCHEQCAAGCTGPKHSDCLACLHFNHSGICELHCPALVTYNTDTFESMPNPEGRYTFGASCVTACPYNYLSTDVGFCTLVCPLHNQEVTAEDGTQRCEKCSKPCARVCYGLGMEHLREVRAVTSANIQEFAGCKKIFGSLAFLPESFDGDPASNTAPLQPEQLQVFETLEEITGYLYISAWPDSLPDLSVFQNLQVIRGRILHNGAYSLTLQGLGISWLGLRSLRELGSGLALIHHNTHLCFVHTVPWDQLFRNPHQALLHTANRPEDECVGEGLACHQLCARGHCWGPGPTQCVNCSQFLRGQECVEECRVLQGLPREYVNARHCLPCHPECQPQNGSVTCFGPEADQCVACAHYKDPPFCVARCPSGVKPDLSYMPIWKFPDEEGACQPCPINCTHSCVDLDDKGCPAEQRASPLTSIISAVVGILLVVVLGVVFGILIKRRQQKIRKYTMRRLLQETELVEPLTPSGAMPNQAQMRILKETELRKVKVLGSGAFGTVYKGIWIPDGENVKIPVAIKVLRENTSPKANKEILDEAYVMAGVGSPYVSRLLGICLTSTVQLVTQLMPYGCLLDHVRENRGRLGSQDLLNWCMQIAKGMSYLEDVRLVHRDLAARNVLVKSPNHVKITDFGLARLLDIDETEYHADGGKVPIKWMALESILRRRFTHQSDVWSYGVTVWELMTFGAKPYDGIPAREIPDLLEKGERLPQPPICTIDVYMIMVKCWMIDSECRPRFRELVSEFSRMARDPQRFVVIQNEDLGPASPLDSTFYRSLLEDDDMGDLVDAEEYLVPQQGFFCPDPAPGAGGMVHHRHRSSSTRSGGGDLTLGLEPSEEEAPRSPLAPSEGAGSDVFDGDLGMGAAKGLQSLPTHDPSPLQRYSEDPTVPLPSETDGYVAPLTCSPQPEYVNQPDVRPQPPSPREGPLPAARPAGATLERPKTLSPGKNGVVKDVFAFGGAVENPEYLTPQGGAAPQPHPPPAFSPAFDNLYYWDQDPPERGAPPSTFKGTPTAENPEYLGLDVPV
- procedure_text: BaF3 cell proliferation assay, HER2 S310F (Table B)
- Type: cell-based
- experimental_parameters: potency code, 3 days, CellTiterGlo, read-out: HER2 S310F (Activity for Inhibiting HER2)

| compound | system_tested | IC50 |
| --- | --- | --- |
| C=CC(=O)Nc1cc2c(Nc3ccc(OCc4ccccn4)c(Cl)c3)ncnc2cc1OCCN(C)C [compound 19] | HER2 S310F (Homo sapiens, UniProt P04626, S310F) | 20 to 30 nM |
| C=CC(=O)Nc1cc2c(Nc3ccc(OCc4cccc(F)n4)c(Cl)c3)ncnc2cc1OCCN1CC2CCC(C1)O2 [compound 156] | HER2 S310F (Homo sapiens, UniProt P04626, S310F) | 30 to 50 nM |
| C=CC(=O)Nc1cc2c(Nc3ccc(OCc4cccc(F)c4)c(Cl)c3)ncnc2cc1OCCN1CC2CCC(C1)O2 [compound 139] | HER2 S310F (Homo sapiens, UniProt P04626, S310F) | 30 to 50 nM |

Now for another entry.
Record C=CC(=O)Nc1cc2c(Nc3cc(Cl)c(OCc4cccc(F)c4)cc3F)ncnc2cc1OCCN1CC(OC)C1 [compound 134] ; system HER2 S310F (Homo sapiens, UniProt P04626, S310F); IC50 = 30 to 50 nM
